Provenance of the data: patent US20120053053A1

# Test system: Solanum nigrum (SOLNI)
# assay.procedure: Post-emergence biological efficacy (percentage damage)
# Assay type: in vivo
# settings: Solanum nigrum, 312 h, dose 1,000 g/ha, evaluated after 13 days, 100=total damage, 0=no damage
# Description: Seeds of Alopecurus myosuroides (ALOMY), Setaria faberi (SETFA), Echinochloa crus-galli (ECHCG), Solanum nigrum (SOLNI), Amaranthus retoflexus (AMARE) and Ipomea hederaceae (IPOHE) were sown in standard soil in pots. […] After 13 days the test was evaluated (100=total damage to plant; 0=no damage to plant).
measure.name: pest or weed control at 1000 g/ha (%)
Write down the numeric answer in % and omit the unit.

The examples below pair each entry with its known result.
C=Cc1c(N)nc(-c2ccc(Cl)c(N(C)C)c2F)nc1C(=O)OCCCC | 80
Cc1c(OCC(=O)OC(C)(C)C)nc(C2CC2)nc1OCC(=O)OC(C)(C)C | 30
COC(=O)c1nc(C2CC2)nc(N)c1C#C[Si](C)(C)C | 100
C=Cc1c(N)nc(-c2ccc(C(=O)OC)cc2)nc1C(=O)OC | 20
C=Cc1c(C(=O)OC)nc(C2CC2)nc1[S+](C)[O-] (stereo not drawn) | 80

[in] Fill blank: measured pest or weed control at 1000 g/ha of the molecule C=Cc1c(N)nc(-c2ccc(F)cc2)nc1C(=O)OC is ____.
[out] 90

[in] Next molecule up: C=Cc1c(N)nc(SC)nc1OCC(=O)OC
[out] 20

[in] Next molecule up: C=C(C)c1c(N)nc(-c2ccc(Cl)c(N(C)C)c2F)nc1C(=O)OC
[out] 20

[in] Next molecule up: C=C(C)c1c(N)nc(-c2ccc(Cl)c(OC)c2F)nc1C(=O)OC
[out] 90

###

Listing: Percentage damage ALOMY, pre-emergence of selected molecules
# System: Alopecurus myosuroides (ALOMY)
# assay.procedure: Pre-emergence biological efficacy (percentage damage)
# Type: in vivo
# settings: dose 1,000 g/ha, evaluated after 13 days, 100=total damage, 0=no damage
Write down the numeric answer in % and omit the unit.

The examples below pair each entry with its known result.
C/C=C/c1c(N)nc(-c2ccc(Cl)c(N(C)C)c2F)nc1C(=O)OC [33-62 (E)] | 70
C/C=C\c1c(N)nc(C2CC2)nc1C(=O)OC [2-62 (Z)] | 20
C/C=C\c1c(N)nc(-c2ccc(Cl)c(N(C)C)c2F)nc1C(=O)OC [33-62 (Z)] | 30
C/C=C/c1c(N)nc(-c2ccc(Cl)c(OC)c2F)nc1C(=O)OC [27-62 (E)] | 90
C/C=C/c1c(N)nc(C2CC2)nc1C(=O)OC [2-62 (E)] | 10
C/C=C\c1c(N)nc(-c2ccc(Cl)c(OC)c2F)nc1C(=O)OC [27-62 (Z)] | 80

[in] Fill blank: measured Percentage damage ALOMY, pre-emergence of the molecule C=Cc1c(N)nc(-c2ccc(Cl)c(N(C)C)c2F)nc1C(=O)OCCCCCCCC [Compound 33-392] is ____.
[out] 70

###

# Tested on: Solanum nigrum (SOLNI)
# assay.procedure: Post-emergence biological efficacy (percentage damage)
# Assay type: in vivo
# settings: Solanum nigrum, 312 h, dose 1,000 g/ha, evaluated after 13 days, 100=total damage, 0=no damage
measure.name: pest or weed control at 1000 g/ha (%)
Write down the numeric answer in % and omit the unit.

C=Cc1c(N)nc(-c2ccc(Cl)c(N(C)C)c2F)nc1C(=O)O [Compound 33-21] | 90

[in] Fill blank: measured pest or weed control at 1000 g/ha of the compound C=Cc1c(C(=O)OC)nc(C2CC2)nc1S(C)(=O)=O [Compound 2-402] is ____.
[out] 20

[in] Next compound up: C=Cc1c(N)nc(-c2ccc(OC(F)(F)F)cc2)nc1C(=O)OC [Compound 47-61]
[out] 70

[in] Next compound up: COC(=O)COc1nc(C2CC2)nc(Cl)c1C [Compound 2-376]
[out] 30

[in] Next compound up: C=Cc1c(N)nc(-c2ccc(Cl)c(N(C)C)c2F)nc1C(=O)OC [Compound 33-61]
[out] 80

[in] Next compound up: C=Cc1c(N)nc(-c2ccc(F)c(C)c2)nc1C(=O)OC [Compound 45-61]
[out] 70

[in] Next compound up: C=C(OCC)c1c(N)nc(-c2ccc(C(F)(F)F)cc2)nc1C(=O)OC [Compound 31-67]
[out] 80

[in] Next compound up: COC(=O)c1nc(-c2ccc(Cl)c(OC)c2F)nc(N)c1C(C)=O [Compound 27-53]
[out] 90

[in] Next compound up: COC(=O)c1nc(C2CC2)nc(N)c1/C=C/C1CC1 [Compound 2-66]
[out] 60

###

Listing: pest or weed control at 1000 g/ha of selected compounds
# Test system: Echinochloa crus-galli (ECHCG)
# assay.procedure: Pre-emergence biological efficacy (percentage damage)
# Format: in vivo
# settings: Echinochloa crus-galli, 312 h, dose 1,000 g/ha, evaluated after 13 days, 100=total damage, 0=no damage
# Description: Seeds of Alopecurus myosuroides (ALOMY), Setaria faberi (SETFA), Echinochloa crus-galli (ECHCG), Solanum nigrum (SOLNI), Amaranthus retoflexus (AMARE) and Ipomea hederaceae (IPOHE) were sown in standard soil in pots. […] After 13 days the test was evaluated (100=total damage to plant; 0=no damage to plant).
Write down the numeric answer in % and omit the unit.

C=Cc1c(N)nc(-c2cc(F)c(F)c(F)c2)nc1C(=O)OC [Compound 63-61] | 0
COC(=O)COc1nc(C2CC2)nc(N)c1C [Compound 2-362] | 10
COC(=O)c1nc(C2CC2)nc(N)c1C#C[Si](C)(C)C [Compound 2-78] | 30

[in] Fill blank: measured pest or weed control at 1000 g/ha of the compound COC(=O)c1nc(-c2ccc(Cl)c(OC)c2F)nc(N)c1C=C(C)C [Compound 27-69] is ____.
[out] 30

[in] Next compound up: COC(=O)c1nc(C2CC2)nc(N)c1C=C(C)C [Compound 2-69]
[out] 0

[in] Next compound up: C=Cc1c(N)nc(-c2ccc(Cl)c(OC)c2)nc1C(=O)OC [Compound 26-61]
[out] 0

[in] Next compound up: COC(=O)COc1nc(C2CC2)nc(Cl)c1C [Compound 2-376]
[out] 0

[in] Next compound up: COC(=O)c1nc(-c2ccc(C(F)(F)F)cc2)nc(N)c1C(C)=O [Compound 31-53]
[out] 90

[in] Next compound up: C=Cc1c(N)nc(-c2ccc(C(F)(F)F)cc2)nc1C(=O)OC [Compound 31-61]
[out] 0

###

Listing: pest or weed control at 1000 g/ha of selected compounds
# Test system: Echinochloa crus-galli (ECHCG)
# assay.procedure: Pre-emergence biological efficacy (percentage damage)
# Type: in vivo
# settings: Echinochloa crus-galli, 312 h, dose 1,000 g/ha, evaluated after 13 days, 100=total damage, 0=no damage
The answer consists of two parts: a number and, after it, its unit.

The examples below pair each entry with its known result.
COC(=O)c1nc(-c2ccc(C(C)=O)c(OC)c2F)nc(N)c1C(C)=O | 0%
C=Cc1c(N)nc(-c2ccc(F)c(C(F)(F)F)c2)nc1C(=O)OC | 70%
COC(=O)c1nc(-c2ccc(Cl)c(N(C)C)c2F)nc(N)c1C | 10%
C=Cc1c(C(=O)OC)nc(C2CC2)nc1S(C)(=O)=O | 0%

[in] // fetch Echinochloa crus-galli (ECHCG) pest or weed control at 1000 g/ha for C=Cc1c(N)nc(-c2ccc(Cl)cc2F)nc1C(=O)OC
[out] 70%

###

# Tested on: Setaria faberi (SETFA)
# assay.procedure: Post-emergence biological efficacy (percentage damage)
# Format: in vivo
# settings: Setaria faberi, 312 h, dose 1,000 g/ha, evaluated after 13 days, 100=total damage, 0=no damage
# pest or weed control at 1000 g/ha >= 20% gives y, anything below gives n

Worked set:
C=Cc1c(N)nc(-c2ccc(Cl)c(N(C)C)c2F)nc1C(=O)OCCC | y
C=Cc1c(N)nc(-c2ccc(Cl)c(N(C)C)c2F)nc1C(=O)OCCOCCCC | y
C=Cc1c(N)nc(-c2ccc(Cl)cc2F)nc1C(=O)OC | y
COC(=O)c1nc(-c2ccc(Cl)c(N(C)C)c2F)nc(N)c1C1CC1 | y
C=Cc1c(N)nc(SC)nc1C(=O)OC | n

[in] Dear colleague, could you confirm whether C=Cc1c(N)nc(-c2ccc(Cl)c(N(C)C)c2F)nc1C(=O)OCC(C)C has pest or weed control at 1000 g/ha at or above 20%?
[out] y

###

# System: Amaranthus retoflexus (AMARE)
# assay.procedure: Pre-emergence biological efficacy (percentage damage)
# Type: in vivo
# settings: Amaranthus retroflexus, 312 h, dose 1,000 g/ha, evaluated after 13 days, 100=total damage, 0=no damage
measure.name: pest or weed control at 1000 g/ha
The answer consists of two parts: a number and, after it, its unit.

The examples below pair each entry with its known result.
C=C(C)c1c(N)nc(-c2ccc(C(F)(F)F)cc2)nc1C(=O)OC | 0%
C=Cc1c(N)nc(SC)nc1C(=O)OC | 100%
Cc1c(Cl)nc(C2CC2)nc1OCC(=O)O | 0%
COC(=O)c1nc(-c2ccc(Cl)c(OC)c2F)nc(N)c1C=C(C)C | 100%
C=Cc1c(N)nc(-c2ccc(OC(F)(F)F)cc2)nc1C(=O)OC | 0%

[in] Fill blank: measured pest or weed control at 1000 g/ha of the molecule C=Cc1c(N)nc(C2CC2)nc1C(=O)OC is ____.
[out] 100%

[in] Next molecule up: C=C(C)c1c(N)nc(-c2ccc(Cl)c(N(C)C)c2F)nc1C(=O)OC
[out] 0%

[in] Next molecule up: C=Cc1c(N)nc(-c2ccc(SC)cc2)nc1C(=O)OC
[out] 60%

[in] Next molecule up: COC(=O)c1nc(-c2ccc(Cl)c(OC)c2F)nc(N)c1C
[out] 50%
